The entries below come with measured inhibition at 1 µM values attached.
subject-of-test: recombinant E. coli BioA (Escherichia coli)
Sequence (P12995 whole entry): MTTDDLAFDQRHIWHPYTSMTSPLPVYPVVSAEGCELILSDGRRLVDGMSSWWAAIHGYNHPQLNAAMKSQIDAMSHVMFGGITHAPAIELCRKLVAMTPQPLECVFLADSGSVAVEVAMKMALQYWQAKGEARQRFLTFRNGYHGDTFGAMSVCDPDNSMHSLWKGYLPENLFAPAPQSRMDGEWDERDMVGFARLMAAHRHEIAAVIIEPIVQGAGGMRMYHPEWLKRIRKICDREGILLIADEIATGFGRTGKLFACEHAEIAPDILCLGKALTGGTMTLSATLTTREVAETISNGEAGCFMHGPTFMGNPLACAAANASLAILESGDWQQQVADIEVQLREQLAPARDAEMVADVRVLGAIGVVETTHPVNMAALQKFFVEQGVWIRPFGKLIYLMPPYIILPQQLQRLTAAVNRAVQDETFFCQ
assay-summary: BioA inhibition through a feeding assay of a bioA auxotroph
Assay type: biochemical
condition: 1 μM; relative to DMSO control

compound: NNC(=O)CSc1ccccc1Cl [Compound 1e, 2-(2-chlorophenylthio) acetohydrazide]
inhibition at 1 µM, %: 63
//
compound: NC(=O)CSc1ccccc1[N+](=O)[O-] [Compound 1l]
inhibition at 1 µM, %: 0
//
compound: NNC(=O)CS [Compound 2b]
inhibition at 1 µM, %: 20
//
compound: NNC(=O)CSc1ccccc1 [Compound 1c, 2-(phenylthio)acetohydrazide]
inhibition at 1 µM, %: 49
//
compound: NNC(=O)Cc1ccccc1[N+](=O)[O-] [Compound 2j]
inhibition at 1 µM, %: 0
//
compound: NNC(=O)CSc1cccc([N+](=O)[O-])c1 [Compound 1a, 2-(3-nitrophenylthio)acetohydrazide]
inhibition at 1 µM, %: 42
//
compound: NNC(=O)C1Cc2ccccc2S1 (stereo not drawn) [Compound 2f]
inhibition at 1 µM, %: 15
//
compound: NNC(=O)CSc1ccccc1O [Compound 1f, 2-(2-hydroxyphenylthio)acetohydrazide]
inhibition at 1 µM, %: 32
//
compound: NNC(=O)CSCc1ccccc1 [Compound 2g, 2-(benzylthio)acetohydrazide]
inhibition at 1 µM, %: 60
